- Tested on: OVCAR-8 ovarian
- method_summary: NCI-60 one-dose screen, 48 h (100 = growth as untreated, 0 = no growth, -100 = all killed)
- condition_info: 10 µM unless noted
This is part of a sample that, as a whole, favours compounds with a hit. Of some 83,000 tested, about 20% had one in any assay. The source made the active and inactive calls. How the source made its calls: active means growth percent below 10; inactive means the rest.
Reported growth by item:

{"molecule": "O=c1ccc(N=Nc2ccccc2)ccc1Cl", "system": "OVCAR-8 ovarian", "recorded_value": "38.9% (inactive)"}
{"molecule": "C/C(=N/NC(N)=S)c1sc(Nc2cccc(Cl)c2)nc1C", "system": "OVCAR-8 ovarian", "recorded_value": "97.5% (inactive)"}
{"molecule": "CCOC(=O)C1=C(N)Oc2c(sc3c(C)cccc23)C1c1ccc(F)cc1 (stereo not given)", "system": "OVCAR-8 ovarian", "recorded_value": "19% (inactive)"}
{"molecule": "Cc1ccc(-c2nc(N3CCN(C(=O)c4ccc(OC(F)(F)F)cc4)CC3)c3ccccc3n2)cc1", "system": "OVCAR-8 ovarian", "recorded_value": "90.3% (inactive)"}
{"molecule": "COc1cc(C2CC(c3ccc(SC)cc3)=NN2C(C)=O)cc(OC)c1OC (stereo not given)", "system": "OVCAR-8 ovarian", "recorded_value": "80.3% (inactive)"}
{"molecule": "CC/C=C\\C[C@@H](O)C/C=C1/C(=O)C=C[C@H]1C/C=C\\CCCC(=O)OC", "system": "OVCAR-8 ovarian", "recorded_value": "-6.75% (active)"}
{"molecule": "CCCCCCCCCCCCCCCCCCOc1ccc(CC(=O)OCC[N+]2(C)CCCCC2)cc1", "system": "OVCAR-8 ovarian", "recorded_value": "96.9% (inactive)"}
{"molecule": "O=c1c2cc(F)ccc2sc2c(NCCN3CCOCC3)nc3ccccc3c12", "system": "OVCAR-8 ovarian", "recorded_value": "81.4% (inactive)"}

Exercise: Name the reported growth value associated with the molecule `N#Cc1c(-c2ccccc2)nc(SCC(=O)Nc2nc(-c3ccc(Cl)cc3)cs2)[nH]c1=O`
Key: 99.1% (inactive)

Exercise: Same question, `CSc1nc2ccc(C)cc2cc1/C=N/O` this time
Key: 84.6% (inactive)

----------
- Test system: UO-31 renal
- method_summary: NCI-60 one-dose screen, 48 h (100 = growth as untreated, 0 = no growth, -100 = all killed)
- condition_info: 10 µM unless noted
Compounds without any hit were thinned out: in the full panel of roughly 83,000, 20% have a hit.
Binary label based on growth with cut-off 60%: below gives Y, not below gives N.

Worked cases, answers included:
{"compound": "OC(COc1ccccc1Cl)CN1CCN(c2cccc(Cl)c2)CC1 (stereo unspecified)", "classification": "N"}
{"compound": "COc1ccc(OC)c(/C=C/C(=O)N/N=C/c2ccccc2)c1", "classification": "Y"}

Exercise: Please let me know if `O=c1[nH][n+](-c2ccc(Br)cc2)no1` shows growth below 60%.
Key: Y

Exercise: Same question, CCOC(=O)C1=C(N)Oc2c(sc3c(C)cccc23)C1c1ccc(OC)cc1 (stereo unspecified) this time
Key: Y

Exercise: Same question, `c1cc(-c2nnc(SSc3ncnc4nc[nH]c34)o2)ccn1` this time
Key: Y

Exercise: Same question, `CN1CCN(c2ccc(-c3cc4c(Nc5ccc(F)c(Cl)c5)ncnn4c3)cc2)CC1` this time
Key: N

Cited source: PubChem BioAssay (NCI)
